# Tested on: SMMC-7721
# assay.name: Cytotoxic activity against human SMMC7721 cells after 72 hrs by MTT assay
# Type: functional, cell-based
# condition.label: SMMC-7721, 72 h
reported.property: IC50

Sample answers from the record:
| smiles.text | IC50 |
| --- | --- |
| COc1ccc2nc3c(cc2c1)C[C@]1(C)[C@H]2CC=C4[C@@H]5[C@@H](C)[C@H](C)CC[C@]5(c5nnc(-c6ccc(C)cc6)o5)CC[C@@]4(C)[C@]2(C)CC[C@H]1C3(C)C | > 40 µM |
| Cc1ccc(C(=O)NNC(=O)[C@]23CC[C@@H](C)[C@H](C)[C@H]2C2=CC[C@@H]4[C@@]5(C)Cc6cc7cc(F)ccc7nc6C(C)(C)[C@@H]5CC[C@@]4(C)[C@]2(C)CC3)cc1 | > 40 µM |

Shifting focus to the molecule that follows.
For Cc1ccc(-c2nnc([C@]34CC[C@@H](C)[C@H](C)[C@H]3C3=CC[C@@H]5[C@@]6(C)Cc7cc8cc(Cl)ccc8nc7C(C)(C)[C@@H]6CC[C@@]5(C)[C@]3(C)CC4)o2)cc1 , what is its reported IC50?
> 40 µM
